Please provide measured IC50 for the entries that follow.
- Test system: A549
- test: Cytotoxicity against human A549 cells after 48 hrs by sulforhodamine B assay
- Type: functional, cell-based
- condition parameters: A549, 48 h

CC(=O)OC[C@H]1O[C@@H](n2cc(Cn3cc(C(C)=O)c4ccccc43)nn2)[C@H](OC(C)=O)[C@@H](OC(C)=O)[C@@H]1OC(C)=O | > 200 µM
CC(=O)OC[C@H]1O[C@@H](n2cc(Cn3cc(C=O)c4ccccc43)nn2)[C@H](OC(C)=O)[C@@H](OC(C)=O)[C@@H]1OC(C)=O | > 200 µM
Cc1ccc(/C=C2/C(=O)Nc3ccccc32)cc1 | > 100 µM
COc1ccc2c(c1)c(/C=N/O)cn2Cc1cn([C@@H]2O[C@H](COC(C)=O)[C@@H](OC(C)=O)[C@H](OC(C)=O)[C@H]2OC(C)=O)nn1 | > 200 µM
O=C(/C=C/c1c[nH]c2ccccc12)c1ccccc1 | > 200 µM

Please look at the following molecule next.
Enquiry: Which IC50 value is on record for CC(=O)OC[C@H]1O[C@@H](n2cc(Cn3cc(/C=C4/C(=O)Nc5ccccc54)c4ccccc43)nn2)[C@H](OC(C)=O)[C@@H](OC(C)=O)[C@@H]1OC(C)=O ?
Return: > 200 µM
